- tested.system: PDGFR-β (Homo sapiens (Human), UniProt P09619)
- Sequence (P09619 33-1106): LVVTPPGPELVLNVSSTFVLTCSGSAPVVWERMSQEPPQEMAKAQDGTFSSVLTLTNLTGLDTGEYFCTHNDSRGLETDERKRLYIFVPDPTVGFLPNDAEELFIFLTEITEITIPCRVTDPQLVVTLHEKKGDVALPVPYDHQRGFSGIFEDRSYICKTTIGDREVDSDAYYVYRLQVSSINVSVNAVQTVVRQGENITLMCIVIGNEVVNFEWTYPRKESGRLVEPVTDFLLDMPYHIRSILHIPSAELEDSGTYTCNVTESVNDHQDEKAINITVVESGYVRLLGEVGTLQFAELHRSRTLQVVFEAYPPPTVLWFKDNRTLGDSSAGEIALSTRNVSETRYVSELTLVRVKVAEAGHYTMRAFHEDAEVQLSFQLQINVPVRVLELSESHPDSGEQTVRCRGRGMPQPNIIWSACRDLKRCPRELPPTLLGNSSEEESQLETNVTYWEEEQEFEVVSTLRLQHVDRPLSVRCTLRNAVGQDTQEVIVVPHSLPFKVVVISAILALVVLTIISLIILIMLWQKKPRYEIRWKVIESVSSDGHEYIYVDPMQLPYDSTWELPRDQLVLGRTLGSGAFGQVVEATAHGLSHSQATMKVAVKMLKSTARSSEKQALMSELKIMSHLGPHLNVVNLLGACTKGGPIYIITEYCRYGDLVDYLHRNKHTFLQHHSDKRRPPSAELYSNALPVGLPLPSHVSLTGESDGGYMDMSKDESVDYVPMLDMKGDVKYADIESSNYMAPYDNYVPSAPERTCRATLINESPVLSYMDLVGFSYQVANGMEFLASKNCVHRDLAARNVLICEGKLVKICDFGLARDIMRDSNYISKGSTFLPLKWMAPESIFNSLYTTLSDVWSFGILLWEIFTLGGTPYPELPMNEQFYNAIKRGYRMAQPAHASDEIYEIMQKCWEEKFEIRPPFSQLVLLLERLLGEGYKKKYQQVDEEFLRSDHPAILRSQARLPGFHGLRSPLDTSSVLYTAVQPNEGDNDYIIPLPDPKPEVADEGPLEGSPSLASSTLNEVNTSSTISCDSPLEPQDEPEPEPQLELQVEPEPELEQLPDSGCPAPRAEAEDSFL
- procedure.details: PDGFR-β kinase inhibition, phosphotyrosine ELISA cytoblot
- test.settings: SH-SY5Y cells, phosphotyrosine ELISA
pIC50: −log10 of the molar value.
measured.endpoint: pIC50

A selection of reference data follows.
                            entry_smiles  measured_endpoint  reported_result
0   Cc1nc(N(C)c2ccc3occc3c2)c2cc(C)oc2n1              pIC50             7.60
1  COc1ccc(N(C)c2nc(C)nc3oc(C)cc23)cc1OC              pIC50             7.18
2   COc1ccc2c(c1)CCN2c1nc(C)nc2oc(C)cc12              pIC50             7.14

1 = Cc1nc(N(C)c2ccc3c(c2)OCO3)c2cc(C)oc2n1
2 = COc1cc(N(C)c2nc(C)nc3oc(C)cc23)cc(OC)c1OC
Query: Between the entries labeled 1 and 2 , whose measured pIC50 is lower? Answer by stating the label of the chosen item.
Result: 2
